B1: CAMK2B (parent)
chain: YQQIKAGAYDFPSPEWDTVTPEAK

Variants of: B1
Assay: protein stability index of a GFP-peptide fusion (GPS, HEK-293T) (PSI 1-6); higher = more stable;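 note: lentivirally expressed fusions sorted by FACS into six bins by GFP to DsRed ratio, PSI derived from sequencing read proportions per bin multiplied by bin number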
Conditions: c terminus: a fixed tail appended
Binary classification by protein stability index, with 4 as an inclusive lower bound for Satisfied; all other cases are Not satisfied.

Look over these answered cases.
residue.codes: YQQIKGGAYDFPSPEWDTVTPEAK
assigned.category: Not satisfied
//
residue.codes: YVQIKAGAYDFPSPEWDTVTPEAK
assigned.category: Not satisfied
//
residue.codes: EQQIKAGAYDFPSPEWDTVTPEAK
assigned.category: Satisfied
//
residue.codes: YQQIKAGAYDFPSPEWDTVTPEIK
assigned.category: Not satisfied
//
residue.codes: YQQIKAGAYDFPSPEWDWVTPEAK
assigned.category: Not satisfied
//
residue.codes: YQQIKAGAYEFPSPEWDTVTPEAK
assigned.category: Not satisfied

(Q) Dear colleague, could you confirm whether YQQIKAGAYDFPSPEWDTVTCEAK has protein stability index at or above 4?
(A) Not satisfied

(Q) Dear colleague, could you confirm whether YQQIKAGADDFPSPEWDTVTPEAK has protein stability index at or above 4?
(A) Satisfied

(Q) Dear colleague, could you confirm whether NQQIKAGAYDFPSPEWDTVTPEAK has protein stability index at or above 4?
(A) Satisfied

(Q) Dear colleague, could you confirm whether YQQIKAYAYDFPSPEWDTVTPEAK has protein stability index at or above 4?
(A) Not satisfied

Values from the supplement of paper PMC10567573
